- Test system: colorectal HCT116 cancer cells
- method description: Cell viability assay
- Type: cell-based, human
- condition details: 96 h, mean ± SD
measure name: IC50 (µM)
Answers are plain numbers, in µM.

Find the measured IC50 of COc1nn(-c2ccc(NC(=O)OCc3ccccc3)c(C)c2)c(=O)o1 [CAY10499, reference compound] with colorectal HCT116 cancer cells as test system.
45

====

- System: breast MDA-MB-231 cancer cells
- method description: Cell viability assay
- Format: cell-based, human
- condition details: 96 h, mean ± SD
measure name: IC50 (µM)
One number for each entry, in µM.

Fill in IC50 for record COc1nn(-c2ccc(NC(=O)OCc3ccccc3)c(C)c2)c(=O)o1 [CAY10499, reference compound]
82
